TARGET_OF_ASSAY: T1, exon 6 peptide (ASSLRNDSSSSNRKAKNPPGDS), coated on ELISA plate (not fully specified)
T1 construct: No biotin is mentioned for the ELISA coat; also called a peptide of SCF248
T1 peptide: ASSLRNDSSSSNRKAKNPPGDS
TEST: direct ELISA on coated peptide, IgG4, read at 450 nm
Experimental: A direct enzyme-linked immunosorbent assay (ELISA) was performed to evaluate binding of the clones of Example 2 (referred to in all additional examples as “mutants”) to the Exon 6 peptide. The mutants were expressed as full length IgG4 antibodies. The plate was incubated at 4° C. overnight. […] Both plates were washed with wash buffer twice. Then, the plates were blocked with blocking buffer for 1 hour at 37° C. […] Each plate was read at an absorbance of 450 nm. […]
READOUT_LABEL: absorbance at 1000 ng/mL antibody (absorbance)
# value in absorbance; strip the unit string

BINDER: D14P mutant expressed as full length IgG4 antibody (antibody, V domains shown, Full length IgG4) VH: QVQLVQSGAELKKPGSSVKISCKSSGYAFSSQWMNWVKQRPGQGLEWIGQIYPGDDDTHYNDKFKGKATLTADKSTSTAYMELSSLTSEDSAVYFCSSSNWVGSYWGQGTLVTVSS VL: DVVMTQSPLSLPVTLGQPASISCKSSQSLLESDGNTYLNWLQQRPGQSPRRLIYLVDRLDLGVPDRFSGSGSGTDFTLKISRVEAEDVGVYYCWQGTDLPQTFGGGTKVEIK
NUMERIC_VALUE: 3.15

Answer with the recorded absorbance at 1000 ng/mL antibody of H74P mutant expressed as full length IgG4 antibody (antibody, V domains shown, Full length IgG4) VH: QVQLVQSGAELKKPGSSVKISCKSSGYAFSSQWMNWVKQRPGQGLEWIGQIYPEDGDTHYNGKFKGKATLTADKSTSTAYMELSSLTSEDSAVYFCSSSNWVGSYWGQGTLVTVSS VL: DVVMTQSPLSLPVTLGQPASISCKSSQSLLEEDGNTYLNWLQQRPGQSPRRLIYLVDRLDLGVPDRFSGSGSGTDFTLKISRVEAEDVGVYYCWQGSHLPQTFGGGTKVEIK only. 3

Provide absorbance at 1000 ng/mL antibody value for the following binder: B114P mutant expressed as full length IgG4 antibody (antibody, V domains shown, Full length IgG4) VH: QVQLVQSGAELKKPGSSVKISCKSSGYAFSSQWMNWVKQRPGQGLEWIGQIYPEDGDTHMNGKFKGKATLTADKSTSTAYMELSSLTSEDSAVYFCSSSNWDGSYWGQGTLVTVSS VL: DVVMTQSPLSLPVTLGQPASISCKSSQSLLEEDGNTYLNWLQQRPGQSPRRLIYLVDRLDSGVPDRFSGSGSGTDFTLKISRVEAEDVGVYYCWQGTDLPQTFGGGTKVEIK 2.81

src = patent US20240182556A1
